# Test name: amyloid nucleation score (Sup35N fusion, yeast selection) (log enrichment); library NNK2; higher = more nucleation; inactive = no reads after selection;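 note: zero at mode of non-aggregating sequences after 7 days selection at 30°C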
Readout label: amyloid nucleation score

{"columns": ["Residue codes", "Endpoint value"],
 "data": [
  ["CRTRGMVRLYGTRRK", "inactive"],
  ["DGALNTFIDYGLSTAIKKIN", "inactive"],
  ["LGDCVSNHSCLSVEHFDLNY", 4.92]
]}

###

# Test name: amyloid nucleation score (Sup35N fusion, yeast selection) (log enrichment); library NNK1; higher = more nucleation; inactive = no reads after selection

{"columns": ["Residue codes", "amyloid nucleation score"],
 "data": [
  ["IVETLCRYCVPRVMVTFVGQ", "inactive"],
  ["NREVYKMLLGCFSIHISCNR", "inactive"],
  ["SRASKYMYVWVVLITFHCLR", "inactive"],
  ["YSFLNYLLTRFDIIFLAAED", "inactive"]
]}

###

# Test name: amyloid nucleation score (Sup35N fusion, yeast selection) (log enrichment); library NNK3; higher = more nucleation; inactive = no reads after selection
Readout label: amyloid nucleation score

These recorded examples may help you get a feel for the data.
{"columns": ["Substance", "amyloid nucleation score"],
 "data": [
  ["RFIGFYPLLQGKNAASGRVL", "inactive"],
  ["MFQFVFSVQMSGSAFRMFMK", "inactive"],
  ["LEFSYPCRWA", "inactive"],
  ["WCAWAVTCLTGVISRPLHES", 0.042],
  ["LKRCRLQMAGYELSWDQGTM", "inactive"],
  ["IRRFIKNIVYTYGHLLLEAH", "inactive"]
]}

Problem: Supply measured amyloid nucleation score of `TCVNLIMKIECFLYYGFLCP` in your reply.
Solution: inactive

Problem: Supply measured amyloid nucleation score of `CQPNWGWCSARIVLHILVLR` in your reply.
Solution: inactive

Problem: Supply measured amyloid nucleation score of `GCLYVW` in your reply.
Solution: inactive

Problem: Supply measured amyloid nucleation score of `MMRSVHFFRCRQTHENLLMC` in your reply.
Solution: -0.207

###

# Test name: amyloid nucleation score (Sup35N fusion, yeast selection) (log enrichment); library NNK3; higher = more nucleation; inactive = no reads after selection
Readout label: amyloid nucleation score

These recorded examples may help you get a feel for the data.
{"columns": ["Substance", "amyloid nucleation score"],
 "data": [
  ["WKDWKLRPNY", "inactive"],
  ["LESLPINNEFSMQSYTRIVI", "inactive"],
  ["FDIYLCDMYSLIFVCTGRLP", -0.544],
  ["VDIGTYMFKMTHADRWVDHG", "inactive"],
  ["WNPCVHTLGI", "inactive"],
  ["GVFWLLNICQYGPRLRHMWS", "inactive"]
]}

Problem: Supply measured amyloid nucleation score of `YITVRR` in your reply.
Solution: -0.297

Problem: Supply measured amyloid nucleation score of `VRLYMYMTILIGNVDLFVEG` in your reply.
Solution: inactive

Problem: Supply measured amyloid nucleation score of `GIANRAFITDGGWGLFISTY` in your reply.
Solution: inactive

Problem: Supply measured amyloid nucleation score of `PRWETSYLIL` in your reply.
Solution: inactive

Problem: Supply measured amyloid nucleation score of `GHGLGAAYCRIVLKRETLTN` in your reply.
Solution: inactive

Problem: Supply measured amyloid nucleation score of `PFKFFW` in your reply.
Solution: inactive

Problem: Supply measured amyloid nucleation score of `ERVLRVNHYWICSFPFNPGV` in your reply.
Solution: inactive

Problem: Supply measured amyloid nucleation score of `LVYNATYCSSMHHSGS` in your reply.
Solution: inactive

Problem: Supply measured amyloid nucleation score of `LRLQRDPCSNSLSVLSCIFC` in your reply.
Solution: 2.63

Problem: Supply measured amyloid nucleation score of `LFQLHMVLSF` in your reply.
Solution: inactive

Problem: Supply measured amyloid nucleation score of `MEFHYWTGVCQVSK` in your reply.
Solution: inactive

Problem: Supply measured amyloid nucleation score of `LRSDMLVVPRIFFACFWSIK` in your reply.
Solution: inactive

Problem: Supply measured amyloid nucleation score of `KFHIFFCSFCVPPE` in your reply.
Solution: 3.17

Problem: Supply measured amyloid nucleation score of `YDDVFFYSWVTFLRQLFDPL` in your reply.
Solution: inactive

Problem: Supply measured amyloid nucleation score of `LSGRVERVW` in your reply.
Solution: inactive

Problem: Supply measured amyloid nucleation score of `PYKEFPNNVRPTWNQRYNVK` in your reply.
Solution: inactive

Problem: Supply measured amyloid nucleation score of `NSRFIMHHVGRAFDCDAYLF` in your reply.
Solution: -0.194

Problem: Supply measured amyloid nucleation score of `HVSGVIYVVGNN` in your reply.
Solution: inactive

Problem: Supply measured amyloid nucleation score of `SIFPRTCTKFFLGVTGFCFN` in your reply.
Solution: -0.322

Problem: Supply measured amyloid nucleation score of `WILLGNGSMNMKSCFMLLFV` in your reply.
Solution: inactive

Problem: Supply measured amyloid nucleation score of `ASCSGIC` in your reply.
Solution: -0.956

Problem: Supply measured amyloid nucleation score of `VSSEGYIADTA` in your reply.
Solution: 0.292

Problem: Supply measured amyloid nucleation score of `LHEEGCATVLKVGCALTSEC` in your reply.
Solution: inactive

Problem: Supply measured amyloid nucleation score of `GLLANWYVQH` in your reply.
Solution: inactive

###

Entries and their amyloid nucleation score values follow.
# Test name: amyloid nucleation score (Sup35N fusion, yeast selection) (log enrichment); library NNK1; higher = more nucleation; inactive = no reads after selection
Give a plain numeric answer without units written out.

These recorded examples may help you get a feel for the data.
{"columns": ["Substance", "Endpoint value"],
 "data": [
  ["WCARNISRCPSNISGNLGMK", -0.461],
  ["YVEPSF", -0.083],
  ["NGKEDKTCLWSVQPYCKSCE", -0.475]
]}

Problem: Supply measured amyloid nucleation score of `YCDNDSYH` in your reply.
Solution: 1.42

###

# Test name: amyloid nucleation score (Sup35N fusion, yeast selection) (log enrichment); library NNK1; higher = more nucleation; inactive = no reads after selection
Readout label: amyloid nucleation score
Give a plain numeric answer without units written out.

{"columns": ["Residue codes", "amyloid nucleation score"],
 "data": [
  ["RCYSVRCTFQVDYARIHANE", 1.99]
]}

Problem: Supply measured amyloid nucleation score of `WASMIHVEFYSNYFL` in your reply.
Solution: -0.017

Problem: Supply measured amyloid nucleation score of `PYAAGENWWMCLQRVPVTIV` in your reply.
Solution: 0.027

Problem: Supply measured amyloid nucleation score of `NVQGSHSCSISCYIMPGRAM` in your reply.
Solution: 5.56

###

# Test name: amyloid nucleation score (Sup35N fusion, yeast selection) (log enrichment); library NNK2; higher = more nucleation; inactive = no reads after selection
Readout label: amyloid nucleation score
Give a plain numeric answer without units written out.

These recorded examples may help you get a feel for the data.
{"columns": ["Residue codes", "amyloid nucleation score"],
 "data": [
  ["NKRELNIVV", 0.701],
  ["NQNCLHTTCVCSRIVSDAAV", 6.48],
  ["NSCSWDSIITLVVQWLARQH", 6.34]
]}

Proceed to the following item.
Problem: Supply measured amyloid nucleation score of `YRRCSRGNPGCDLAGFGRVV` in your reply.
Solution: -0.08

###

# Test name: amyloid nucleation score (Sup35N fusion, yeast selection) (log enrichment); library NNK3; higher = more nucleation; inactive = no reads after selection
Readout label: amyloid nucleation score

These recorded examples may help you get a feel for the data.
{"columns": ["Substance", "Readout label", "Endpoint value"],
 "data": [
  ["SIEKAILCSCVVSMPIMRGG", "amyloid nucleation score", 2.3],
  ["RVTGTCGFRRDGFESWRNTR", "amyloid nucleation score", "inactive"],
  ["KVCGCSILLLKLRGVNRVVS", "amyloid nucleation score", "inactive"],
  ["RQQRLRRKPLFWDNQAKANY", "amyloid nucleation score", 0.211],
  ["KANDMVFMGGGVLKLGRTLA", "amyloid nucleation score", "inactive"],
  ["HYMFSVVNVSGDCFFLSESN", "amyloid nucleation score", 3.24],
  ["SGTPVPAYSTSWQQNWVKQC", "amyloid nucleation score", "inactive"],
  ["HWILSTPCLNVV", "amyloid nucleation score", "inactive"]
]}

Problem: Supply measured amyloid nucleation score of `GGLCLLAVLWKFLMSALVIR` in your reply.
Solution: inactive

Problem: Supply measured amyloid nucleation score of `LSINTQTS` in your reply.
Solution: inactive

Problem: Supply measured amyloid nucleation score of `NKVFMEDQGLKVHWV` in your reply.
Solution: inactive

Problem: Supply measured amyloid nucleation score of `MYSHLNTCTTAKPQVFCSKL` in your reply.
Solution: inactive

Problem: Supply measured amyloid nucleation score of `STWTWMPHKERHITLSKEFW` in your reply.
Solution: inactive

Problem: Supply measured amyloid nucleation score of `RNWLYLFVRRLISWLNKWGK` in your reply.
Solution: inactive

Problem: Supply measured amyloid nucleation score of `YLIDVGL` in your reply.
Solution: inactive

Problem: Supply measured amyloid nucleation score of `RSDGRCEYKSWCNVQLKVE` in your reply.
Solution: inactive

Problem: Supply measured amyloid nucleation score of `TVHYSLIRWTSGNCGLGYW` in your reply.
Solution: 0.841

Problem: Supply measured amyloid nucleation score of `TCLNGLVESRLAGFYHLRGP` in your reply.
Solution: inactive
